Recorded values, source PubChem BioAssay (NCI).

- Test system: UO-31 renal
- test name: NCI-60 one-dose screen, 48 h
- assay conditions: 10 µM unless noted
This is part of a sample that, as a whole, favours compounds with a hit. Of some 83,000 tested, about 20% had one in any assay. The source made the active and inactive calls. The calls were made as follows: active = growth percent below 10; inactive = the rest.
// allowed return values: active, inactive

O=C(CC(=O)c1ccccc1F)Nc1ccc([N+](=O)[O-])cc1 :: inactive
CC(C)(C)c1cc(C[P+](c2ccccc2)(c2ccccc2)c2ccccc2)cc(C(C)(C)C)c1O :: active

For COc1nccc2c(Sc3ccccc3)nc(N)nc12 , which call appears in the assay record? inactive

Also need NC(N)=N/N=C/c1cccc(Cl)c1Cl , thanks. inactive

Also need N=C(N)c1ccc(-c2ccc(-c3ccco3)o2)cc1F , thanks. active

Also need N/C(=N\O)c1ncc(-c2ccc(C(F)(F)F)cc2)c(NC2CCCCCC2)n1 , thanks. active
